# Species: Mus musculus
# MEASUREMENT DESCRIPTION: Inhibition of nitric oxide (NO) production induced by interferon-gamma (IFN-gamma) in mouse macrophages
# Type: functional
pIC50: −log10 of the molar value.
TEST READOUT: pIC50

Some compounds with recorded pIC50:
COMPOUND	pIC50
CC1(C)CC[C@]2(CO)CC[C@]3(C)C(=CC(=O)[C@@H]4[C@@]5(C)C=CC(=O)C(C)(C)[C@@H]5CC[C@]43C)C2C1 (stereo not given in full)	5.52
CC1(C)CC[C@]2(C(=O)O)CC[C@]3(C)C(=CC(=O)[C@@H]4[C@@]5(C)C=CC(=O)C(C)(C)[C@@H]5CC[C@]43C)C2C1 (stereo not given in full)	5.96
COC(=O)[C@]12CCC(C)(C)CC1C1C(=O)C=C3[C@@]4(C)C=CC(=O)C(C)(C)[C@@H]4CC[C@@]3(C)[C@]1(C)CC2 (stereo not given in full)	6.15

1. COC(=O)[C@]12CCC(C)(C)CC1C1=CC(=O)[C@@H]3[C@@]4(C)C=CC(=O)C(C)(C)[C@@H]4CC[C@@]3(C)[C@]1(C)CC2 (stereo not given in full)
2. COC(=O)[C@]12CC[C@@H](C)[C@H](C)C1C1=CC(=O)[C@@H]3[C@@]4(C)C=C(C#N)C(=O)C(C)(C)[C@@H]4CC[C@@]3(C)[C@]1(C)CC2 (stereo not given in full)
3. C[C@@H]1CC[C@]2(C(=O)O)CC[C@]3(C)C(=CC(=O)[C@@H]4[C@@]5(C)C=C(C#N)C(=O)C(C)(C)[C@@H]5CC[C@]43C)C2[C@H]1C (stereo not given in full)
4. COC(=O)[C@]12CCC(C)(C)CC1C1C(=O)C[C@@H]3[C@@]4(C)C=CC(=O)C(C)(C)[C@@H]4CC[C@@]3(C)[C@]1(C)CC2 (stereo not given in full)
5. COC(=O)[C@]12CCC(C)(C)CC1C1=CC[C@@H]3[C@@]4(C)C=CC(=O)C(C)(C)[C@@H]4CC[C@@]3(C)[C@]1(C)CC2 (stereo not given in full)
Incoming: Sort by pIC50, descending. Use the labels to give the requested order.
Outgoing: 2, 3, 1, 4, 5
(2: 7.00, 3: 6.10, 1: 5.55, 4: 4.85, 5: 4.51)

Where do the numbers come from? From ChEMBL document CHEMBL1133509.
